Assay system Matrix metalloproteinase-14 (Homo sapiens); read-out recorded as Ki.
Measured property: Ki

>>> data_value("NC(=O)[C@@H](CCC(=O)O)NC(=O)[C@H](CCC(=O)O)NC(=O)C(Cc1cc(-c2ccc(-c3cccc(Cl)c3)cc2)no1)CP(=O)(O)c1ccc(Br)cc1 (some centres undefined)")
"> 0.1 µM"
>>> data_value("NC(=O)[C@H](CCC(=O)O)NC(=O)CCc1ccc(-c2cc(-c3ccccc3)cs2)cc1")
"3.01 µM"
>>> data_value("NC(=O)[C@H](CCC(=O)O)NC(=O)CCc1ccc(-c2ccc(-c3ccccc3)s2)cc1")
"> 10 µM"
>>> data_value("NC(=O)[C@H](CCC(=O)O)NC(=O)CCc1ccc(-c2ccc(-c3ccccc3)cc2)cc1")
"1.05 µM"

====

Assay system Matrix metalloproteinase-9 (Homo sapiens); read-out recorded as Ki.
Measured property: Ki (µM)

>>> data_value("Cc1ccc(-c2ccc(CCC(=O)N[C@@H](CCC(=O)O)C(N)=O)cc2)s1 [Inhibitor, 17]")
0.091
>>> data_value("NC(=O)[C@H](CCC(=O)O)NC(=O)CCc1ccc(-c2ccc(-c3ccccc3)cc2)cc1 [Inhibitor, 18]")
2.19
>>> data_value("NC(=O)[C@H](CCC(=O)O)NC(=O)CCc1ccc(-c2ccc(-c3ccccc3)s2)cc1 [Inhibitor, 19]")
1.33

====

biological target: Matrilysin (Homo sapiens)
Sequence (P09237 whole entry): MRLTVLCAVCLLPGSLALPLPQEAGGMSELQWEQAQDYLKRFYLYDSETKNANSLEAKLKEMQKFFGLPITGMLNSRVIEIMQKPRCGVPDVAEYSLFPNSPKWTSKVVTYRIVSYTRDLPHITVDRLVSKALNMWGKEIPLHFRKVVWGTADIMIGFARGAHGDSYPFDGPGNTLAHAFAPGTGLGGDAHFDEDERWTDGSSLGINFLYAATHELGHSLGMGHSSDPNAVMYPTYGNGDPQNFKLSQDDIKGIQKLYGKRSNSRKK
Measured property: IC50

>>> data_value("CC(C)C(NS(=O)(=O)c1ccc2c(c1)oc1ccc(N3CCOC3=O)cc12)C(=O)O (stereo unspecified) [MMP Inhibitor, 2]")
"> 2000 nM"

====

biological target: A disintegrin and metalloproteinase with thrombospondin motifs 5 (Homo sapiens, UniProt Q9UNA0)
Sequence (Q9UNA0 whole entry): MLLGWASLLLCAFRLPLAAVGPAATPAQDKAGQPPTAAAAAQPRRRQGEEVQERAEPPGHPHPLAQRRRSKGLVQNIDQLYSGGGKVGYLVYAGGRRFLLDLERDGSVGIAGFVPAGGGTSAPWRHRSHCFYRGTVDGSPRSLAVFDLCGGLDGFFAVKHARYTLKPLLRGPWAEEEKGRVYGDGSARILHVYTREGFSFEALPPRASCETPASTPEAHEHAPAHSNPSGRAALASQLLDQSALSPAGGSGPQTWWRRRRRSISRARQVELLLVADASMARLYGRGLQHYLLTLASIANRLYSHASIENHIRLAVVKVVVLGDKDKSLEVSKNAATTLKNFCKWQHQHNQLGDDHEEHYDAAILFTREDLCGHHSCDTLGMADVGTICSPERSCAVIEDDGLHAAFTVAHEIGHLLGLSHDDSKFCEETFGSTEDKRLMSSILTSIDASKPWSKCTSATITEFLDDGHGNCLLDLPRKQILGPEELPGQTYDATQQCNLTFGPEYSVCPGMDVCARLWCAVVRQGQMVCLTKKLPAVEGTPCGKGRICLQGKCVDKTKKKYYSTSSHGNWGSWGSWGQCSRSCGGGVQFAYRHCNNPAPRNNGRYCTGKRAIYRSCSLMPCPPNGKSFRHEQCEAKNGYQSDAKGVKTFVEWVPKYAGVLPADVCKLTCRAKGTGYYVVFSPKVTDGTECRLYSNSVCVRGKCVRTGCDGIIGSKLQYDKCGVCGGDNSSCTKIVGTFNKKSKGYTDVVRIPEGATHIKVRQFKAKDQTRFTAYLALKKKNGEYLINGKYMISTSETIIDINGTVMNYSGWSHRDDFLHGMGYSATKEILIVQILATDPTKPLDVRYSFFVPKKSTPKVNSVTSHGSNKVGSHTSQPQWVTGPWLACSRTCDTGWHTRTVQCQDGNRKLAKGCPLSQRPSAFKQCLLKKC
pKi: −log10 of the molar value.
Measured property: pKi

>>> data_value("NC(=O)[C@H](CCC(=O)O)NC(=O)CCc1ccc(-c2ccc(-c3ccccc3)cc2)cc1")
5.24
>>> data_value("NC(=O)[C@H](CCC(=O)O)NC(=O)c1ccc(-c2cc(-c3ccccc3)cs2)cc1")
6.06
>>> data_value("NC(=O)[C@H](CCC(=O)O)NC(=O)CCc1ccc(-c2ccc(-c3ccccc3)s2)cc1")
6.23
>>> data_value("Cc1ccc(-c2ccc(CCC(=O)N[C@@H](CCC(=O)O)C(N)=O)cc2)s1")
5.49
>>> data_value("NC(=O)[C@H](CCC(=O)O)NC(=O)CCc1ccc(-c2cc(-c3ccccc3)cs2)cc1")
5.38

====

target: Neutrophil collagenase (Homo sapiens); experiment: Enzyme Assay; conditions: pH 6.8; 25 °C
Sequence (P22894 whole entry): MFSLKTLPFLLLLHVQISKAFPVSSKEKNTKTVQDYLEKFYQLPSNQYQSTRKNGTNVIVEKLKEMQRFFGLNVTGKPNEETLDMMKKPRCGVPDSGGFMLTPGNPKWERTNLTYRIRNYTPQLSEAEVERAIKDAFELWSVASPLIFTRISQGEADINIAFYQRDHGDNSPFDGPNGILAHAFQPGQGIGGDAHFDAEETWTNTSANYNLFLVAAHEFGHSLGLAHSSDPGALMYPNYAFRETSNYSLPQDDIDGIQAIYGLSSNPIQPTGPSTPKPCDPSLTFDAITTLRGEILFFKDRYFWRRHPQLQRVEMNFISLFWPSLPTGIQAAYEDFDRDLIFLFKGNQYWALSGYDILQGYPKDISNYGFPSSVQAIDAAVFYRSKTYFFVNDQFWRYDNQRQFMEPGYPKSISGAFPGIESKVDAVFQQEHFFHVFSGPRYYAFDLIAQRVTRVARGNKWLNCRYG
pKi: −log10 of the molar value.
Entries and their pKi values follow.
Measured property: pKi

>>> data_value("NC(=O)[C@H](CCC(=O)O)NC(=O)CCc1ccc(-c2ccc(-c3ccccc3)cc2)cc1")
6.69
>>> data_value("Cc1ccc(-c2ccc(CCC(=O)N[C@@H](CCC(=O)O)C(N)=O)cc2)s1")
8.28

====

target: Macrophage metalloelastase (Homo sapiens, UniProt P39900); experiment: Enzyme Assay; settings: pH 6.8; 25 °C
Sequence (P39900 whole entry): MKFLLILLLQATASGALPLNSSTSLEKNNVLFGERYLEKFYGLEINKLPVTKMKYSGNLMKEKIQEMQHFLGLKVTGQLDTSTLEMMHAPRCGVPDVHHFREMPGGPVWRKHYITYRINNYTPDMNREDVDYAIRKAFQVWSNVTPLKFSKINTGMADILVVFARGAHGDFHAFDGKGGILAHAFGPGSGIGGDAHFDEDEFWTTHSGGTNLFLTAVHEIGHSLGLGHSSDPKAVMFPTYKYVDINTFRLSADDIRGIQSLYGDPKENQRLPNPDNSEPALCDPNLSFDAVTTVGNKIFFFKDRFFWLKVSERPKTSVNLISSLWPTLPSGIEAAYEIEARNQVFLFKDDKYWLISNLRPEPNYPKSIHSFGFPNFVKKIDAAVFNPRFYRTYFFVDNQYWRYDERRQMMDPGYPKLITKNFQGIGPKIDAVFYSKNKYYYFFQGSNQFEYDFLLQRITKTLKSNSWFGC
Entries and their Ki values follow.
Measured property: Ki (nM)

>>> data_value("NC(=O)[C@@H](CCC(=O)O)NC(=O)[C@H](CCC(=O)O)NC(=O)C(Cc1cc(-c2ccc(-c3cccc(Cl)c3)cc2)no1)CP(=O)(O)c1ccc(Br)cc1 (some centres undefined)")
0.2
>>> data_value("NC(=O)[C@H](CCC(=O)O)NC(=O)CCc1ccc(-c2cc(-c3ccccc3)cs2)cc1")
3.6
>>> data_value("NC(=O)[C@H](CCC(=O)O)NC(=O)CCc1ccc(-c2ccc(-c3ccccc3)cc2)cc1")
3.3
>>> data_value("Cc1ccc(-c2ccc(CCC(=O)N[C@@H](CCC(=O)O)C(N)=O)cc2)s1")
3.3
